// reported inhibition for each item listed
Biological target: Neuronal acetylcholine receptor; alpha9/alpha10 (Homo sapiens) (UniProt Q9UGM1+Q9GZZ6)
Assay: Antagonist activity at human wild type alpha9alpha10 nAChR expressed in acetylcholine-induced Xenopus laevis oocytes assessed as inhibition of acetylcholine-induced current at 30 nM by two electrode voltage-clamp assay relative to control
Type: cell-based
Conditions: Oocyte
Assay endpoint: inhibition

{"Substance": "H-GRYRSAYDRRRRYRRITD-NH2", "Assay endpoint": "inhibition", "Reported": "20%"}
{"Substance": "H-GRYRSRYDRRRRYRRITD-NH2", "Assay endpoint": "inhibition", "Reported": "10%"}
{"Substance": "H-GRYRSPYRRRRRYRRITD-NH2", "Assay endpoint": "inhibition", "Reported": "10%"}
{"Substance": "H-GRYRSPYDRRRRYRRATD-NH2", "Assay endpoint": "inhibition", "Reported": "20%"}
{"Substance": "H-GRRRSPYDRRRRYRRITD-NH2", "Assay endpoint": "inhibition", "Reported": "10%"}
{"Substance": "H-GRYRSPYDRRRRYRDITD-NH2", "Assay endpoint": "inhibition", "Reported": "0%"}
{"Substance": "H-GRYRSPYDRRRRYRDIDD-NH2", "Assay endpoint": "inhibition", "Reported": "0%"}
{"Substance": "H-GRYRSPYDDRRRYRRITD-NH2", "Assay endpoint": "inhibition", "Reported": "0%"}
{"Substance": "H-GRYRSPYDRRRRYDRITD-NH2", "Assay endpoint": "inhibition", "Reported": "0%"}
{"Substance": "H-GRYRSPYDRRRRYRAITD-NH2", "Assay endpoint": "inhibition", "Reported": "20%"}
{"Substance": "H-GRYRSPYDRRRDYRRITD-NH2", "Assay endpoint": "inhibition", "Reported": "0%"}
{"Substance": "H-GRYRSPYDRRDRYRRITD-NH2", "Assay endpoint": "inhibition", "Reported": "0%"}
{"Substance": "H-GRYRDPYDRRRRYRRITD-NH2", "Assay endpoint": "inhibition", "Reported": "0%"}
{"Substance": "H-GRYRSPADRRRRYRRITD-NH2", "Assay endpoint": "inhibition", "Reported": "20%"}

meta.source: ChEMBL document CHEMBL5537181
